Collected apparent KD of MS2 coat protein values appear next to each entry.
# Test system: MS2 coat protein
# EXPERIMENT: apparent KD of MS2 coat protein; designed switch direction (-1 OFF switch, 1 ON switch): 1; higher = weaker reporter binding
# CONDITION_PARAMETERS: input ligand: microRNA oligo, concentration not stated

SEQUENCE_ENTRY	STUDY_SYSTEM	VALUE_UNIT	apparent KD of MS2 coat protein
GUGGUCAGACAUGAGGAUCACCCAUGUGGAAUAAAUAACGGACAGGAUAUUGAAUAUAGGAUAUACAAGAAGGGUUGAUUGGUG (Eterna round: R96, puzzle: Same State NG 3)	MS2 coat protein	nM	47.7
AUGAAGAAUUAAGGAUAUUGAUUACAUAUGUUUAACAUGAGGAUCACCCAUGUGGGUUGCGGUAUCGAGAAGGUAAAUUACAAG [Mat - same State NG 2 - JL mod - D87] (Eterna round: R96, puzzle: Same State NG 2)	MS2 coat protein	nM	132
GGUAGGUUACUACCAAUCUACAUGAGGAUCACCCAUGUGUAGGAGGAUAUGGUACCUAUUUGGUACCAGAAGGCCUAAUUAAUU [Fiskers NG3ss - 9] (Eterna round: R96, puzzle: Same State NG 3)	MS2 coat protein	nM	96.7
ACUAUUAAUGCAGGAUAUGAUUAACAUGAGGAUCACCCAUGUGGUGUUGUGAGUAAGGAGAGUGAUCAGAAGGGCAUUUUUUUU [JMF's solution 37] (Eterna round: R96, puzzle: Same State NG 2)	MS2 coat protein	nM	466
GCGGAACGGGCCGACAUGAGGAUCACCCAUGUGGCCUCAUGUCAGGAUAUCGGGAAGAAGAAAACCGAGAAGGGACGGUGACGC [AK SSNG3-V2-32] (Eterna round: R96, puzzle: Same State NG 3)	MS2 coat protein	nM	29.8
AGACAUGAGGAUCACCCAUGUAUACACUGUAUCAGUGUAACAUAGGAUAUCCACCGCCAUGCUGUGGAGAAGGAUGAAACGGGC [Matearen] (Eterna round: R96, puzzle: Same State NG 3)	MS2 coat protein	nM	111
GCUAGAAAUAAAGCCAACAUGAGGAUCACCCAUGUAUGUUGGUAGGAUAUCGUAUGCAAAGCAUACGAGAAGGGCUAAACUAGC [Mat - Same State NG 3 - JL Mod - D18] (Eterna round: R96, puzzle: Same State NG 3)	MS2 coat protein	nM	77.5
UUAAUGAAGUAAGGAUAUACAUGAGGAUCUCUCGUAGAAGGUACUAUACAUGAGGAUCACCCAUGUGCCGGUCCGUAGACUGGA [JL SSNG1 1.04] (Eterna round: R96, puzzle: Same State NG 1)	MS2 coat protein	nM	180
CCAGGACAUGAGGAUCACCCAUGUGCUUAAUAUGGAGAAUCUCAGGAUAUCAUGAGGAUCACCCAUGAGAAGGGAGAUCCGAGG (Eterna round: R96, puzzle: Same State NG 3)	MS2 coat protein	nM	118
